The entries below come with measured pEC50 values attached.
test system: Human immunodeficiency virus 1; assay: Antiviral activity against recombinant HIV1 NLRep-Rluc harbouring polymorphic 124T/125T integrase infected in human MT2 cells assessed as inhibition of virus growth in presence of fetal bovine serum by measuring luciferase activity after 5 days by Luciferase Assay; assay type: functional, organism-based; conditions: Human immunodeficiency virus 1, NLRep-Rluc, MT2, 120 h
Schema: pEC50 number; meaning minus log10 of the concentration expressed in molar units.

INSERT INTO results (structure, assay_system, readout_value) VALUES
  ('Cc1c([C@H](OC(C)(C)C)C(=O)O)c(N2CCC(C)(C)CC2)c(-c2ccc3c(c2)CCN(c2ncnc4c2oc2ccccc24)C3)c2ncnn12', 'Human immunodeficiency virus 1', 8.54),
  ('Cc1c([C@H](OC(C)(C)C)C(=O)O)c(N2CCC(C)(C)CC2)c(-c2ccc(OCCc3ccc(F)cc3)cc2)c2nc(C3CC3)cn12', 'Human immunodeficiency virus 1', 8.38),
  ('Cc1c([C@H](OC(C)(C)C)C(=O)O)c(N2CCC(C)(C)CC2)c(-c2ccc(OCCc3ccc(F)cc3)cc2)c2cccn12', 'Human immunodeficiency virus 1', 7.56);

# input So what does the record say about pEC50 for Cc1c([C@H](OC(C)(C)C)C(=O)O)c(N2CCC(C)(C)CC2)c(-c2ccc3c(c2)CCN(c2ncnc4c2oc2ccccc24)C3)c2cnnn12 ?
# output 8.42

# input Requested field: pEC50. Item: Cc1c([C@H](OC(C)(C)C)C(=O)O)c(N2CCC(C)(C)CC2)c(-c2ccc(OCCc3ccc(F)cc3)cc2)c2nncn12
# output 7.92

# input Give the measured pEC50 of Cc1nc2c(C)c(N3CCC(C)(C)CC3)c([C@H](OC(C)(C)C)C(=O)O)c(C)n2n1 .
# output 6.68

* * *

Listed here: items and their measured bioavailability.
experiment: Oral bioavailability in Sprague-Dawley rat at 5 mg/kg; assay type: ADME, organism-based; conditions: in vivo
Just the number in %, nothing appended.

# input # query: bioavailability of entry Cc1nc2c(-c3ccc(OCCc4ccc(F)cc4)cc3)c(N3CCC(C)(C)CC3)c([C@H](OC(C)(C)C)C(=O)O)c(C)n2n1
# output 39

# input Bench note: what bioavailability did Cc1nc2c(-c3ccc4c(c3)CCN(Cc3c(C)cccc3Cl)C4)c(N3CCC(C)(C)CC3)c([C@H](OC(C)(C)C)C(=O)O)c(C)n2n1 show?
# output 34

# input Return reported bioavailability; argument: Cc1c([C@H](OC(C)(C)C)C(=O)O)c(N2CCC(C)(C)CC2)c(-c2ccc(OCCc3ccc(F)cc3)cc2)c2ncnn12
# output 28

# input Request the reported bioavailability associated with Cc1c([C@H](OC(C)(C)C)C(=O)O)c(N2CCC(C)(C)CC2)c(-c2ccc3c(c2)CCN(c2ncnc4c2oc2ccccc24)C3)c2nccn12
# output 9

* * *

Item-by-item account of CC50
assay: Cytotoxicity against human MT2 cells infected with HIV1 NLRep-Rluc harbouring polymorphic 124T/125T integrase; type: toxicity, cell-based; settings: MT2 cells infected with HIV-1 NLRep-Rluc

Consider the worked cases shown below.
INSERT INTO results (structure, assay_metric, readout_value) VALUES
  ('Cc1c([C@H](OC(C)(C)C)C(=O)O)c(N2CCC(C)(C)CC2)c(-c2ccc3c(c2)CCN(c2ncnc4c2oc2ccccc24)C3)c2cnnn12', 'CC50', '≥ 3 µM'),
  ('Cc1c([C@H](OC(C)(C)C)C(=O)O)c(N2CCC(C)(C)CC2)c(-c2ccc(OCCc3ccc(F)cc3)cc2)c2ccnn12', 'CC50', '≥ 18.2 µM'),
  ('Cc1c([C@H](OC(C)(C)C)C(=O)O)c(N2CCC(C)(C)CC2)c(-c2ccc(OCCc3ccc(F)cc3)cc2)c2cncn12', 'CC50', '≥ 18.2 µM');

Proceed to the following item.
# input Which CC50 value belongs to Cc1c([C@H](OC(C)(C)C)C(=O)O)c(N2CCC(C)(C)CC2)c(-c2ccc(OCCc3ccc(F)cc3)cc2)c2nccn12 ?
# output ≥ 10.3 µM

Cited source for all entries: ChEMBL document CHEMBL5126573
